Provide the reported BTK_I_binding pIC50 of each item.
- Experimental target: unphosphorylated-BTK kinase domain (UP-BTK), GST-tagged human BTK (389-659aa) (Homo sapiens (Human))
- Sequence (Q06187 389-659): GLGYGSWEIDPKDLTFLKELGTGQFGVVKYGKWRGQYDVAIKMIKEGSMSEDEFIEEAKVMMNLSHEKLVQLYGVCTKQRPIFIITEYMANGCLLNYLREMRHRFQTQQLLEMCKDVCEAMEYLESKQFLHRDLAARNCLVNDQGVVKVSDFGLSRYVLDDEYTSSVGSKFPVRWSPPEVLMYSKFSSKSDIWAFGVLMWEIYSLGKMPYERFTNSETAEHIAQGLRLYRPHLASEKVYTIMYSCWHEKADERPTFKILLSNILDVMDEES
- Test name: BTK kinase Lanthascreen binding assay
- Experimental setup: pIC50 = negative log of the IC50 in molar; 60 minutes incubation, 50 nM Tracer 236
Give bare numbers.

Record BTK_I_binding pIC50 for all entries; do not skip any.
1. C=CC(=O)N1CCC[C@@H](NC(=O)c2sc3nccc4c3c2NC(=O)N4c2ccc(F)cc2)C1 [Example 255]
2. Cc1cc(Oc2ccccc2)ccc1N1C(=O)Nc2c(C(=O)N[C@@H]3C[C@H](O)CN(C)C3)sc3nccc1c23 [Example 266]
3. C/C=C\C(=O)N1CCC[C@@H](NC(=O)c2sc3nccc4c3c2NC(=O)N4c2ccc(Oc3ccccc3)cc2C)C1 [Example 116]
4. Cc1cc(Oc2ccccc2)ccc1N1C(=O)Nc2c(C(=O)NC3CNC3)sc3nccc1c23 [Example 252]

Resp:
[6.6, 6.3, 7.2, 6.4]
